biological target: NAMPT (human, recombinant, C-terminally His-tagged) (Homo sapiens); assay: Time-Resolved Fluorescence Resonance Energy Transfer (TR-FRET) Binding Assay of NAMPT; details: 6.8 nM NAMPT, 200 nM probe, equilibrated 3 hours, absence of substrates
Sequence (P43490 whole entry): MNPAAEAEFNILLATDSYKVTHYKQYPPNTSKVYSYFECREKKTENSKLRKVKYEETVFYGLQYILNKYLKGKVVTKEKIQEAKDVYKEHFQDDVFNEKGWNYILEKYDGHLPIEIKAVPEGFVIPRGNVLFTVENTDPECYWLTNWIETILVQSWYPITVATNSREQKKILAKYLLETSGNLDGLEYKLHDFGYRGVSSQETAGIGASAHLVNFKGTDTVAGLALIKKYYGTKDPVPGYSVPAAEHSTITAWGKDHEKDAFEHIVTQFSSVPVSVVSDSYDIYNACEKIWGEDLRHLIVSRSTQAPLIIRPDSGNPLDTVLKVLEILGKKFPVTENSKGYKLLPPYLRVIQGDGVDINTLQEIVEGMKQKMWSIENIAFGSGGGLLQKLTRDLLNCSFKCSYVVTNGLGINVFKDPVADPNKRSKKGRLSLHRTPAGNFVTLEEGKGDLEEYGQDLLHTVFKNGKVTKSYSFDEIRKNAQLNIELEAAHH
propertyLabel: pIC50
Give bare numbers, as −log10 of the molar value.

These solved cases illustrate the format of a correct answer.
>  <molecule>
Cc1ncccc1N1CC(C(=O)Nc2ccc(C3CCN(C(=O)c4ccco4)CC3)cc2)C1 [Example 189]

>  <pIC50>
8.16

$$$$
>  <molecule>
COCC(=O)N1CCC(c2ccc(NC(=O)C3CN(c4cccnn4)C3)cc2)CC1 [Example 333]

>  <pIC50>
7.29

$$$$
>  <molecule>
CC(C)C(=O)N1CCC(c2ccc(NC(=O)C3CN(c4ccnnc4)C3)cc2)CC1 [Example 528]

>  <pIC50>
7.58

$$$$
>  <molecule>
O=C(Nc1ccc(C2CCN(C(=O)c3cccc(Cl)c3)CC2)cc1)C1CN(c2cccnn2)C1 [Example 351]

>  <pIC50>
7.43

$$$$
>  <molecule>
O=C(Nc1ccc(OC2CCN(C(=O)c3ccccc3F)CC2)cc1)C1CN(c2cccnn2)C1 [Example 228]

>  <pIC50>
7.26

$$$$

Provide reported pIC50 for each item, in the same order as listed.
1. O=C(Nc1ccc(OC2CCN(C(=O)Cc3ccc(F)cc3F)CC2)cc1)C1CN(c2cccnn2)C1 [Example 236]
2. O=C(Nc1ccc(OC2CCN(C(=O)C3CCOC3)CC2)cc1)[C@H]1CCN(c2cccnc2)C1 (some centres unmarked) [Example 15]
3. O=C(Nc1ccc(OC2CN(C(=O)C3CCCC3)C2)cc1)C1CN(c2ccnnc2)C1 [Example 259]

[6.89, 5.78, 7.49]

----------
tested on: PC3 cells; experiment: NAMPT Cell Proliferation Assay (Cell Titer Glo; also performed in the presence of 0.3 mM nicotinamide mononucleotide); assay type: cell-based; conditions: Homo sapiens, PC-3, 120 h, 5 days incubation, cell viability by Cell Titer Glo
pIC50: −log10 of the molar value.
Consider the cut-off 8. If the recorded pIC50 is strictly smaller, the label is yes (1); if not, the label is no (0).

Solved cases below.
>  <molecule>
O=C(Nc1ccc(CC2CCN(C(=O)c3cccs3)CC2)cc1)C1CN(c2cccnn2)C1

>  <targetOfAssay>
PC3 cells

>  <discreteLabel>
no (0)

$$$$
>  <molecule>
O=C(Nc1ccc(CC2CCN(C(=O)c3ccccc3F)CC2)cc1)C1CN(c2cccnn2)C1

>  <targetOfAssay>
PC3 cells

>  <discreteLabel>
no (0)

$$$$
>  <molecule>
CC1CC1C(=O)N1CCC(Cc2ccc(NC(=O)C3CN(c4cccnn4)C3)cc2)CC1 (stereo not drawn)

>  <targetOfAssay>
PC3 cells

>  <discreteLabel>
no (0)

$$$$
>  <molecule>
CC(C)(C)CC(=O)N1CCC(c2ccc(NC(=O)C3CN(c4cccnn4)C3)cn2)CC1

>  <targetOfAssay>
PC3 cells

>  <discreteLabel>
no (0)

$$$$
>  <molecule>
Cc1ccc(N2CC(C(=O)Nc3ccc(O[C@@H]4CCN(C(=O)c5ccc(F)cc5F)C4)cc3)C2)nn1

>  <targetOfAssay>
PC3 cells

>  <discreteLabel>
yes (1)

$$$$

Problem: For the molecule CCOC(=O)c1cc(-c2ccc(NC(=O)C3CN(c4cccnn4)C3)cc2)n(C)n1 , is pIC50 under 8?
yes (1)

Problem: For the molecule COCCOCC(=O)N1CCC(Cc2ccc(NC(=O)C3CN(c4cccnn4)C3)cc2)CC1 , is pIC50 under 8?
no (0)

Problem: For the molecule Cc1nnccc1N1CC(C(=O)Nc2ccc(C3CCN(C(=O)c4ccccc4)CC3)cc2)C1 , is pIC50 under 8?
yes (1)

Problem: For the molecule O=C(NC1(C2CC2)CC1)c1ccc(NC(=O)C2CN(c3cccnn3)C2)cc1 , is pIC50 under 8?
yes (1)

Problem: For the molecule C[C@H](NC(=O)c1ccc(NC(=O)C2CN(c3cccnn3)C2)cc1)C1CC1 , is pIC50 under 8?
yes (1)

Problem: For the molecule Cc1ccc(N2CC[C@H](C(=O)Nc3ccc(C4CCN(C(=O)c5ccccc5F)CC4)cc3)C2)nn1 , is pIC50 under 8?
yes (1)

Problem: For the molecule O=C(NC1CCOCC1)c1ccc(NC(=O)C2CN(c3cccnn3)C2)cc1 , is pIC50 under 8?
yes (1)

Problem: For the molecule O=C(N[C@H]1CCN(c2cccnn2)C1)c1ccc(C2CCN(C(=O)c3ccccc3F)CC2)o1 , is pIC50 under 8?
yes (1)

Problem: For the molecule O=C(N[C@H]1CCOC1)c1ccc(NC(=O)C2CN(c3cccnn3)C2)cc1 , is pIC50 under 8?
yes (1)

Problem: For the molecule O=C(NC[C@H]1CCCO1)c1ccc(NC(=O)C2CN(c3cccnn3)C2)cc1 , is pIC50 under 8?
yes (1)

Problem: For the molecule CN1CCCC(NC(=O)c2ccc(NC(=O)C3CN(c4cccnn4)C3)cc2)C1 (stereo not drawn) , is pIC50 under 8?
yes (1)
